PROTOCOL NOTES: yeast display, Sf9 membrane polyspecificity reagent, FACS + sequencing; frameworks hold sequencing errors
EXPERIMENTAL ENDPOINT: polyreactivity (PSR sort gate)

1) QVQLVESGGGLVQAGGSLRLSGAASGSTFVIYAMGWSRQAPGKERELVAAIRLGGGSTYYADSVKGRFTISRDNAKNTVYLQMNSLKPEDTEVYYCAAEVDQWYYRGYVYWGQGTQVTVSS    high polyreactivity
2) QVQLVESGGGLVQAGGSLRLSCAASGSTFILNYMGWYRQAPGKERELVAAIDWGDSTTYYADSVKGRFTISRDNAKNTVYLQMNSLKPEDTAVYYCAADFAVSAFTRYPPTEYWGQGTQVTVSS    high polyreactivity
3) QVQLVESGGGLVQAGGSLRLSCAASGRIYVNAMGWYRQAPGKERELVAAIRSGGSTNYADSVKGRFTISRDNAKNTVYLQMNSLKPEDTAVYYCNARRRDYRHWYDYWGQGTQVTVSS    high polyreactivity
4) QVQLVESGGGLVQAGGSLRLSCAASGFTFGSNAMGWYRQAPGKERELVAAISYSGTRTYYADSVKGRFTISRDNAKNTVYLQMNRLKPEDTAVNYCAAGFRKTQFNVRYDYWGQGTQVTVSS    high polyreactivity
5) QVQLVESGGGLVQAGVSLRLSCAASGSIFAYYAMGWYRQAPGKERELVATIRSSGGRTYYADSVKGRFTISRDNAKNNVYLHLNSLKPEDTAVYYCAAERSITYDYWGQGTQVTVSS    high polyreactivity
6) QVQLVESGGGLVQAGGSLRLTCAASGSIFYAYAMGWYRQAPGKERELVAGITFSDDSTYYADSVKGRFTISRDNAKNTVYLQMNSLKPEDTAVYYCAADTISWYGNYYYWGQGTQVTVSS    high polyreactivity
7) QVQLVESGGGLVQAGGSLRLSCAASGSILVRYSMGWYRQAPGKERELVAAITSGGSTYADSVKGRFTISRDNAKNTVYLQLNSLNPEDTAVYYCARDYFNREAFDYWGQGTQVTVSS    low polyreactivity
8) QVQLVESGGGLVQAGGSLRLSCAASGFTFPYYAMGWYRQAPVKERELVAAISYNGGSTYYADSVKGRFTISRDNAKNNVYLQMNSLKPEDTAVYYCNAVYYDSGVVGYYYWGQGTQVTVSS    high polyreactivity
9) QVQLVESGGGLVQAGGSLRLSCAASGSTVYVYAMGWYRQAPGKERELVATISSSGAITYYADSVKGRFTISRDNAKNTVYLQMNSLKPEDTAVYYCARTGSLLSQVWYNYWGQGTQVTVSS    low polyreactivity
10) QVQLVESGGGLVQAGGSLRLSCAASGITFASYAMGWYRQAPGKERELVAAISRTGGSTYYADSVKGRFTISRDNAKNTVYLQMNSLKPEDTAVYYCAARIPYTGYDYWGQGTQVTVSS    high polyreactivity
11) QVQLVESRGVLVQAGGSLRLSCAASGYIFAPYAMGWYRPAPGKERELVSAISWRGGSTYYADSVKGRFTISRDNAKITVYLQMNSLKPVDTAVYFCAAQGYGSGLSYYRFDFWGLGTQVTVSS    high polyreactivity
12) QVQLVESGGGLVQAGGSLRLTCAASGITFQYYVMGWYRHAPGKERELVAAITRRGGSTYYADSVKGRFTISRDNAKNTVYLQMNSLKPEDTAVYYCAAAITYLPAYRYNYWGQGTQVTVSS    high polyreactivity
13) QVQLVESGGGLVQAGGSLRLSCAASGSTFVKYAMGWYRQAPGKERELVAAIDSSGGSTYYADSVKGRFTISRDNAKNTVYLQMNSLKAEDTAVYYCAAPRGNRLKGLEGYYWGQGTQVTVSS    high polyreactivity
14) QVQLVESGGGLVQAGGSLRLSCAASGSIFYGNVMGWYRQAPGKERELVAAISSSGGSTYYADSVKGRFTISRDTAKNTVYLQMNSLKPEDTAVYYCAAYWWSRVVRGSRYDYWGQGTQVTVSS    low polyreactivity
15) QVQLVESGGCLVQAGGSLRLSCAASGRTFRYYAMGWYRQAPGRERELVAAIRRAGSTTYADSVKGRFTISRDNAKNTVYLQMNSLKPEDTAVYYCIARRYGYGYALDYWGQGTQVTVSS    high polyreactivity
16) QVQLVESGGGLVQAGGSLRLSCAASGRIFDIYAMGWYRQAPGKERELVAGITSVGSTNYADSVKGRFTISRDNEKNTVYLQMNSLKPEDTAVYYCAAKAYFSTSPYHREHDSWGQGTQVTVSS    low polyreactivity
17) QVQLVESGGGLVQAGGSLRLSCAASGRILAGYAMGWYRQAPGKERELVAVISVGTGSTYYADSVKGRFTISRDNAKNTVYLQMNSLKPEDTAVYYCAADPGPYKELEYGYWGQGTQVTVSS    low polyreactivity
18) QVQLVESGGGLVQAGGSLRLSCAASGSIFYYYVMGWYRQAPGKERELVAAISSGGGTNYADSVKGRFTISRDNAKNTVYLQMNSLKPEDTAVYYCANASAYGLANDYDYWGQGTQVTVSS    low polyreactivity
19) QVQLVESGGGLVQAGGSLRLSCAASGSIFGGNAMGWYRQAPGKERELVAAITSTVSTNYADSVKGRFTISRDNAKNTVYLQMNSLKPEVTAVYYCATDSSNVEGDYWGQGTQVTVSS    low polyreactivity
20) QVHLVESGGGLVQAGGSLRLSCAASGSIYVNTMGWYRPAPGKERELVAGISRSTGRTYYADSVKGRFTISRDNAKNTVYLQMNSLKPEDTAVYYCNTVPWRRWGYDYWGQGTQVTVSS    high polyreactivity
21) QVQLVESGGGLVQAGGSLRLSCAASGFTFYLYAMGWYRQAPGKERELVASISSGGRTKYADSVKGRFSISRDNAMNTVYLQMNSLKPEDTAVYYCAARGYFTRQFTPYDYWGQGTQVTVSS    high polyreactivity

* * *

PROTOCOL NOTES: yeast display, Sf9 membrane polyspecificity reagent, FACS + sequencing; frameworks hold sequencing errors
EXPERIMENTAL ENDPOINT: polyreactivity (PSR sort gate)

1) QVQLVESGGGLDQAGGSLRLSCAASGIIFSLYAMGSYRQAPGKERELVAAISASDGDTYYADSVKGRFTISRDNAKNTVYLQMNSLKPEDTAVYYCAADATYYLGYEAEYYYWGQGTQVTVSS    low polyreactivity
2) QVQLVESGRGLVQAGGSLRLSCAASGFTFAGYAMGWYRQATGKERELVAAITWSGGRTYYADSVKGRFTISRDNAKNTVYLQMKSLKPEDTAVYYCAAASGRSRYEYWGQGTQVTVSS    high polyreactivity
3) QVQLVESGGGLVQAGGSLRLSCAASGFTFGGNVMGWYRQAPGKERELVAAISSSGGSTYYADSVKGRFTISRDNAKNTVYLQMNSLKPEDTAVYYCAATTYGWWGYQYDYWGQGTQVTVSS    high polyreactivity
4) QVQLVESGGGIVQAGGSLRLSCAASGSTFAYYAIGWYRQAPGKEREFVATITWTGGSTNYADSETGRFTISRDNAKNSVYLQMNSLKPEATAVYYSAASFVISYDYWGQGTQVTVSS    high polyreactivity
5) QVQLVESGGGLVQAGGSLRLSCGASGSIFKYYAMGWYREARGKERELVAAITWSGGRTNYADSVKGRFTISRDNAKNTVYLQMNSLKPEDTAVYYCAATRRRYRPYEYWGLGTQVTVSS    high polyreactivity
6) QVQLVESGGGLVQAGGSLRLSCAASGFTFSSNAMGWYRQAPGKERELVAAISSSGARTYYADSVKGRFTISRDNAKNTVYLQMNSLKPEDTAVYYCNARGLAGRKGYDYWGHGTQVTVSS    high polyreactivity
7) QVQLVESGGGLVQAGGSLRLRCAASGRIFPWYAMGWYRHAPGGEREFVAVISRSGGSTYYADSVKGRFTISRDNAKNTVYLQMNSLKPEDTAVYYCASDGKFEYDYWGQGTQVTVSS    low polyreactivity
8) QVQLVESGGGLVQAGGSLRLSCSASGRIFDTYAMGWYRQAPGKERELVAAIRRTGGSTYYADSVKGRFTISRDNAKNTVYLQMNSLKPEDTAVYYCAAEYTVSYLRMDYWGQGTQVTVSS    low polyreactivity
9) QVQLVESGGGLVQAGGSLRLSCAASGSTFLRYAMGWYRQAPGKERELVAAINLSGDRTYYADSVKGRFTISRDNAKNTDYVQMNSLKPEDTAVYYCAARWWGPSYDAYDYWVQGTQVTVSS    low polyreactivity
10) QVQLVESVGGLDQAGGTLRLSCAASGSTFKYNGMGWYRQAPGKERELVAAISWRAGSTYADSVKGRFTISRDNAKNTVYLLMYSLKPEDTEVYYCAARLKYWGDYYYWGQGTQVTVSS    low polyreactivity
11) QVQLVESGGGLVQAGGSLRLSCAASGRTSSVYAMGWYRQAPGKESELVAAINRSDGGTYYADSVKGRFTISRDNAKNTVYLQMNSLKPEDTAVYYCARRYYYQYRYDYWGQGTQVTVSS    high polyreactivity
12) QVQLVESGGGLVQAGGSLRLSCAASGSTFYTNAMGWYRQAPGKEREFVAAISWSGSSTYADSVKGRFTISRDNAKNTVYLQMNSLKPEDTAVYYCSADWFKLRTDYYWGQGTQVTVSS    low polyreactivity
13) QVQLVESGGGLVQAGGSLRLSCAASARIIGTYAMGWYRQATGKERELVAASTRGGTTYYADSVKGRFTISRDNAKNTVYLQMNSLIPEDTAVYYCATGPAIRYDYWGQGTQVTVSS    low polyreactivity
14) QVQLVESGGGLVQAGGSLRLICAASGRTFNINGMGWYRQAPGKERELVAAITTSGGSTYYADSVKGRFTISRDNAKNTVYLQMNSLKPEDTAVYYCAADVFSRKYLYGDYDYWGQGTQVTVSS    high polyreactivity
15) QVQLVESGGGLVQAGGSLRLSCAASGRTFNIYAMGWYRQEPGKERELVAAITNNGGRTYYADSVKGRFTISRDNAKNTVYLQMNSLKPEDTAVYYCAAVSGRSYDKYYYWGQGTQVTVSS    high polyreactivity
16) QVQLVESGGGLVQAGGSLRLTCAASGSIFGVYTMGWYRQAPGKERELVAAITSAGSTYADSVKGRFTISRDNAKNTVYLQMNSLNPEDTEVYYCNAQSFLLSLRVELREPHEYWGQGTQVTVSS    low polyreactivity
17) QVQLVESGGGIVQAGGSLRLSCAASGSTVVIYTMGWSRQAAGKEREFVASLSVSGGSTYYADSVKGRFTISRDYAKKTVYLQMNSLKPEDTAVYYCAAGYPYYYWTPYYYWGQGTQVTVSS    high polyreactivity
18) QVQLVESGGGLVQAGGSLRLSCAASGRTFQYYAMGWNRQAPGKERELVAAISQDGGSTYYADSVKGRFTISRDNAKHSVYLQMNSLKPEDTAVYYCDAEVWRSYGYWGQGTQVTVSS    low polyreactivity
19) QVQLVESGGGLVKAGGSLRLSCAASGRNFNYYAMGWYTQAPGKERELVAAIRSGGSTYYADSVKGRFTISRDNAKYTVYFQMNSLKPEDTAVYYCAKSMSSDAYDSWGQGTKVTVSS    low polyreactivity
20) QVQLVESGGGLVQAGGSLRLSCAASGNIFLYYAMGWYRQAPGKERELVADIDSSGASTYYADSVKGRFTISRDNAKNTVYLQMNSLKPEDTAVYYCAARGRKNQRRYGYWGQGTQVTVSS    low polyreactivity
21) QVQLVESGGGLVQAGGSLRLSCAASGNTFPTYAMGWYRQAHGKERELVAAINKRGSNTYYADSVKGRFTISRDNAKNTVYLQMNSLKPEDTADYYARAAGEYDYWGQGTQVTVSS    high polyreactivity
